Origin of measurements: ChEMBL document CHEMBL5143685

Known MIC of a selection of compounds
Test system: Pseudomonas aeruginosa
Assay: Antibacterial activity against Pseudomonas aeruginosa ATCC 27853 assessed as inhibition of bacterial growth measured after 18 hrs by resazurin dye based analysis
Assay type: functional

# SMILES STRING, TARGET OF ASSAY, MIC
data = [
    ("C[C@@]12CCC[C@](C)(C(=O)O)[C@H]1CCc1ccc(OC(=O)CCCNCCCCNCCCNC(=O)Oc3ccc4c(c3)[C@@]3(C)CCC[C@](C)(C(=O)O)[C@@H]3CC4)cc12.O=C(O)C(F)(F)F.O=C(O)C(F)(F)F", "Pseudomonas aeruginosa", "> 31 µM"),
    ("CCCCCNC(=O)[C@@]1(C)CCC[C@]2(C)c3cc(OC(=O)CCCNCCCCCCCNCCCNC(=O)Oc4ccc5c(c4)[C@@]4(C)CCC[C@](C)(C(=O)NCCCCC)[C@@H]4CC5)ccc3CC[C@@H]12.O=C(O)C(F)(F)F.O=C(O)C(F)(F)F", "Pseudomonas aeruginosa", "> 26.4 µM"),
    ("C[C@]1(C(=O)NCCCNCCCCNCCCNC(=O)[C@@]2(C)CCC[C@]3(C)c4cc(O)ccc4CC[C@@H]23)CCC[C@]2(C)c3cc(O)ccc3CC[C@@H]12.O=C(O)C(F)(F)F.O=C(O)C(F)(F)F", "Pseudomonas aeruginosa", "> 33.9 µM"),
    ("C[C@]1(C(=O)O)CCC[C@]2(C)c3cc(OC(=O)NCCCNCCCCN)ccc3CC[C@@H]12", "Pseudomonas aeruginosa", "> 47.5 µM"),
]

Okay, now this compound:
Q: Report value: MIC, system: Pseudomonas aeruginosa, compound: C[C@]1(C(=O)NCCCNCCCCN)CCC[C@]2(C)c3cc(OC(=O)NCCCNCCCCN)ccc3CC[C@@H]12.O=C(O)C(F)(F)F.O=C(O)C(F)(F)F.O=C(O)C(F)(F)F.O=C(O)C(F)(F)F
A: > 31.1 µM
